// data source = patent US10774390B2

Test system: PrfA
Assay: PrfA activation in L. monocytogenes strains expressing TagRFP from the actA promoter, grown in media with or without reducing agents
Type: cell-based, Listeria monocytogenes
Details: reducing agent added to chemically defined media (Table 1)
Protocol: Experiments were conducted to identify any additional factors required for PrfA activation. Three different strains were employed: WT 10403S (Lauer et al., J. Bacteriol. (2002) 184:4177-4186; ΔprfA which was an in frame deletion in prfA made by allelic exchange; and PrfA* which has a G145S mutation. The strains were engineered to express TagRFP from the actA promoter (e.g., as reported in Waite et al., PLoS Pathog. (2011)7:e1001326. A chemically defined media detailed in Table 1 was prepared. […]
measure_name: Optimal concentration for prfA activation (mM)
Give a bare numeral; the unit mM is implied.

compound	uom	assay_result
N[C@@H](CS)C(=O)O	mM	10
O[C@H](CS)[C@H](O)CS (racemic)	mM	2
N[C@@H](CCC(=O)N[C@@H](CS)C(=O)NCC(=O)O)C(=O)O [Glutathione (reduced), Glutathione]	mM	10
O=C(O)CCP(CCC(=O)O)CCC(=O)O	mM	2

Field: next compound
In one line, give reported Optimal concentration for prfA activation of the entry "OCCS" . 2

* * *

Tested on: PrfA
Test: PrfA activation in L. monocytogenes strains expressing TagRFP from the actA promoter, grown in media with or without reducing agents
Type: cell-based, Listeria monocytogenes
Conditions: L. monocytogenes grown in chemically defined media, excess of exogenously added reducing agent

compound	activation of PrfA in vitro
O[C@H](CS)[C@H](O)CS (racemic)	recapitulated
O=C(O)CCP(CCC(=O)O)CCC(=O)O	recapitulated
OCCS	recapitulated
